# ASSAYED_SYSTEM: aldose reductase enzyme obtained from human placenta (Homo sapiens, UniProt P15121)
ENDPOINT_NAME: IC50 (µM)
One number for each entry, in µM.

C[S+]([O-])c1ccc2c(c1)C1(CCO2)NC(=O)NC1=O (stereo not shown) has a reported IC50 of 12

---

For each record, write down the corresponding Number of Eyes Observed, + (vacuole).
# System: cataracts in rats
# EXPERIMENT: Prevention or retardation of cataracts in galactose-fed rats
# Type: in vivo, rat
# RUN_PARAMETERS: Study Day 6; 30% galactose diet; A,C,E 0.0025%, B,D 0.01%

O=C1NC(=O)C2(CCOc3ccc(F)cc32)N1 (stereo not shown) [E]: 0 eyes
CSc1ccc2c(c1)C1(CCO2)NC(=O)NC1=O (stereo not shown) [A]: 14 eyes
CSc1ccc2c(c1)C1(CCO2)NC(=O)NC1=O (stereo not shown) [B]: 0 eyes

Please turn your attention to the following entry.
Item: C[S+]([O-])c1ccc2c(c1)C1(CCO2)NC(=O)NC1=O (stereo not shown) [D] | Number of Eyes Observed, + (vacuole): 10 eyes

FYI, the data here is from patent US4464385A.
